Tested on: M19-MEL
Protocol Text: NCI tumour cell line growth inhibition, 48 h
Activity calls are given as the source filed them. No stated cut-off is given here; in the data, active = GI50 up to about 1.1 µM and inactive = higher.
Answer each item with its documented GI50.

Quick request: GI50 for each listed item, please.
1. N#CCCN(CCC#N)c1ccc(/C=N\c2ccc(F)cc2)cc1
2. CC1(C)O[C@H]2OC3CCC(=O)CC3(O)[C@H]2O1 (some centres not stated)
3. CC1CC2C(=O)N(c3ccccc3)C(=O)C2c2c1c1ccccc1n2Cc1ccccc1 (configuration not stated)
4. CCCCCCCCCCCC(=O)OCC1OC(n2cc(F)c(=O)[nH]c2=O)C(N)C(OC(=O)CCCCCCCCCCC)C1O (configuration not stated)
5. O=c1c2cc(Br)ccc2[nH]c(=S)n1-c1ccc(Br)cc1
6. O=c1[nH]cc(COCCCO)c(=O)[nH]1
7. c1ccc2c3nc(C4CCCC4)nc-3c(NC3CCCC3)[nH]c2c1
8. CS(=O)(=O)N(CCC#N)c1ccc(/C=C2\N=C(c3ccccc3Cl)OC2=O)cc1

Key:
["1.63 µM (inactive)", "> 100 µM (inactive)", "> 100 µM (inactive)", "> 100 µM (inactive)", "> 100 µM (inactive)", "> 100 µM (inactive)", "13.2 µM (inactive)", "> 100 µM (inactive)"]
